- EXPERIMENTAL TARGET: ΔF508-CFTR stably expressed in NIH3T3 cells (Homo sapiens, UniProt P13569, DEL508-508)
- Construct: expressed in transfected cells
- Sequence (P13569 with tags, fused parts or gaps DEL508-508): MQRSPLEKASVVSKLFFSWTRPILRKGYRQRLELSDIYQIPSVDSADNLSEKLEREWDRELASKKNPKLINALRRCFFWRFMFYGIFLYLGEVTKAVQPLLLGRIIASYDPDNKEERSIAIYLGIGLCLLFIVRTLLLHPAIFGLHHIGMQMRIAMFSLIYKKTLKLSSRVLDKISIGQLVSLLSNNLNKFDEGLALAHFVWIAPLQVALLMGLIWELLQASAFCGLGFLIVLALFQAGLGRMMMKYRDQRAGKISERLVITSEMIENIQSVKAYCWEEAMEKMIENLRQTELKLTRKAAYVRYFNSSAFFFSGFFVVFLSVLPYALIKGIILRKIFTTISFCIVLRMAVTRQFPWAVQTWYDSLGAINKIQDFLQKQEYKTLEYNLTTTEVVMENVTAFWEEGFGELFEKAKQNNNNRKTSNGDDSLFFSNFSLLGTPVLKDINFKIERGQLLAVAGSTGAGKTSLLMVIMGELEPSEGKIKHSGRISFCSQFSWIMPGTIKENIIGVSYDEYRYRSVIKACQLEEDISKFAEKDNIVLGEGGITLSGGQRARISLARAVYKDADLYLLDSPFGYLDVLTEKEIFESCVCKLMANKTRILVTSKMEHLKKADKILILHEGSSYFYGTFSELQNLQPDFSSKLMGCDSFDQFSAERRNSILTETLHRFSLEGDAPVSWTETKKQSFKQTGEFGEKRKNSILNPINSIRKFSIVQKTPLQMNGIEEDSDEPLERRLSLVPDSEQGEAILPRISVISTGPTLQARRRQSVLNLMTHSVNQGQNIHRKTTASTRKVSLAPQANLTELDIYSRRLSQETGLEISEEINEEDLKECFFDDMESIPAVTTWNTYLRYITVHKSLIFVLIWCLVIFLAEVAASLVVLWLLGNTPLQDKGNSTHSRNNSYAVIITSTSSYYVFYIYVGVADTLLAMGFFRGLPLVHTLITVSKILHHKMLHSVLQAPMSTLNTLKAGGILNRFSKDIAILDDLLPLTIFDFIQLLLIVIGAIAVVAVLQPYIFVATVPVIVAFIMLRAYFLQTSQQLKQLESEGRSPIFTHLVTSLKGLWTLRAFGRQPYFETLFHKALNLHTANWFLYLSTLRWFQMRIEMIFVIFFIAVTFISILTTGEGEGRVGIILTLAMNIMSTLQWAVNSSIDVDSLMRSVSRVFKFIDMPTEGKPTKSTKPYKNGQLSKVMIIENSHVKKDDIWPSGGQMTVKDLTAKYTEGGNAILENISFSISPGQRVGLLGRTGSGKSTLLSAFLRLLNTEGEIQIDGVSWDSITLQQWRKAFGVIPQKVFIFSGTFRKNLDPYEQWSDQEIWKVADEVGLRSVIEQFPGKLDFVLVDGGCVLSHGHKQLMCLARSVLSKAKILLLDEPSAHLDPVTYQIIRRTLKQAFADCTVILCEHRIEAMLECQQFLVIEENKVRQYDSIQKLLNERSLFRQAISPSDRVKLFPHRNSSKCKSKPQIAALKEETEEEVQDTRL
- EXPERIMENT SUMMARY: Membrane potential optical (FRET/VIPR) assay for ΔF508-CFTR potentiation
- Type: cell-based
- RUN PARAMETERS: NIH3T3, read-out: % Efficacy (relative modulating efficacy in comparison with genistein), normalized to peak genistein response
RECORDED ENDPOINT: Emax

What measured Emax is associated with Cc1ccc(-c2cc(-c3cccc(F)c3)[nH]n2)c(O)c1 [IA-106] on ΔF508-CFTR stably expressed in NIH3T3 cells (Homo sapiens, UniProt P13569, DEL508-508)?
35 to 75%

====

- EXPERIMENTAL TARGET: ΔF508-CFTR stably expressed in NIH3T3 cells (Homo sapiens, UniProt P13569, DEL508-508)
- Construct: expressed in transfected cells
- EXPERIMENT SUMMARY: Membrane potential optical (FRET/VIPR) assay for ΔF508-CFTR potentiation
- Assay type: cell-based
- RUN PARAMETERS: NIH3T3, read-out: % Efficacy (relative modulating efficacy in comparison with genistein), normalized to peak genistein response
RECORDED ENDPOINT: Emax

Bench note: what Emax did `Oc1ccc(Cl)cc1-c1cc(-c2ccc(C(F)(F)F)cc2)[nH]n1` show?
35 to 75%

Bench note: what Emax did `COc1ccc(-c2cc(-c3ccccc3O)n[nH]2)cc1OC` show?
35 to 75%

Bench note: what Emax did `Cc1ccc(O)c(-c2cc(-c3cccc([N+](=O)[O-])c3)n[nH]2)c1` show?
35 to 75%

Bench note: what Emax did `Cc1ccc(O)c(-c2cc(-c3ccccc3O)n[nH]2)c1` show?
< 35%

Bench note: what Emax did `COc1ccc(-c2cc(-c3ccc(C)cc3O)n[nH]2)cc1` show?
35 to 75%

---
Bench note: what Emax did `CC(C)c1ccc(O)c(-c2cc(-c3ccccc3)[nH]n2)c1` show?
> 75%

Bench note: what Emax did `Cc1ccc(O)c(-c2cc(-c3ccc(Br)cc3)[nH]n2)c1` show?
> 75%

Bench note: what Emax did `Cc1ccc(O)c(-c2cc(-c3ccc(-c4cccc(C(F)(F)F)c4)o3)n[nH]2)c1` show?
35 to 75%

Bench note: what Emax did `Cc1ccc(O)c(-c2cc(-c3ccccc3OC(F)(F)F)n[nH]2)c1` show?
> 75%

Bench note: what Emax did `Oc1ccc(F)cc1-c1cc(-c2ccccc2)n[nH]1` show?
35 to 75%

Bench note: what Emax did `Cc1ccc(O)c(-c2cc(-c3cc(Cl)ccc3C(F)(F)F)n[nH]2)c1` show?
35 to 75%

====

- EXPERIMENTAL TARGET: ΔF508-CFTR stably expressed in NIH3T3 cells (Homo sapiens, UniProt P13569, DEL508-508)
- Construct: expressed in transfected cells
- EXPERIMENT SUMMARY: Membrane potential optical (FRET/VIPR) assay for ΔF508-CFTR potentiation
- Type: cell-based
- RUN PARAMETERS: NIH3T3, read-out: % Efficacy (relative modulating efficacy in comparison with genistein), normalized to peak genistein response
Reported Emax values for a set of compounds

Below, each entry is followed by its recorded Emax result.
Bench note: what Emax did `Fc1ccccc1-c1cc(-c2cccc(Cl)c2)[nH]n1` show?
35 to 75%

Bench note: what Emax did `CCCc1ccc(O)c(-c2cc(-c3ccccc3)[nH]n2)c1` show?
> 75%

Bench note: what Emax did `Cc1ccc(O)c(-c2cc(-c3ccccc3Cl)[nH]n2)c1` show?
< 35%

Bench note: what Emax did `Cc1ccc(O)c(-c2cc(-c3ccc([N+](=O)[O-])cc3)n[nH]2)c1` show?
35 to 75%

--- query ---
Bench note: what Emax did `CCSc1ncccc1-c1cc(-c2ccccc2)n[nH]1` show?
35 to 75%

====

- EXPERIMENTAL TARGET: ΔF508-CFTR stably expressed in NIH3T3 cells (Homo sapiens, UniProt P13569, DEL508-508)
- Construct: expressed in transfected cells
- EXPERIMENT SUMMARY: Membrane potential optical (FRET/VIPR) assay for ΔF508-CFTR potentiation
- Format: cell-based
- RUN PARAMETERS: NIH3T3, read-out: % Efficacy (relative modulating efficacy in comparison with genistein), normalized to peak genistein response
RECORDED ENDPOINT: Emax

Bench note: what Emax did `O=[N+]([O-])c1ccccc1-c1cc(-c2ccccc2O)n[nH]1` show?
35 to 75%

Bench note: what Emax did `Cc1ccc(O)c(-c2cc(-c3ccncc3)n[nH]2)c1` show?
35 to 75%

Bench note: what Emax did `Cc1ccc(-c2cc(-c3cc(C)ccc3O)n[nH]2)cc1` show?
35 to 75%

--- query ---
Bench note: what Emax did `Cc1ccc(O)c(-c2cc(-c3cc(C(F)(F)F)oc3C)n[nH]2)c1` show?
> 75%
